System: Plasmodium falciparum
Experiment: GSK_TCMDC: Inhibition of Plasmodium falciparum 3D7 in whole erythrocytes, using parasite LDH activity as an index of growth.
Assay type: functional, organism-based
Conditions: Plasmodium falciparum, 3D7
So I've got a bunch of molecules here, and I need their XC50 values.
# unit: nM | format: bare number

Which value of XC50 has been reported for CC(C)(C)c1cc([N+](=O)[O-])cc(C(=O)Nc2ccccc2C(F)(F)F)c1O in the records?
652

Which value of XC50 has been reported for COc1ccc(Cc2nc3c(n2C(C)=O)SC(c2ccc(Cl)c(Cl)c2)=NN3C(C)=O)cc1 in the records?
809

Which value of XC50 has been reported for COc1cccc(Nc2c(C(N)=O)cnc3ccc(-c4ccc([S+](C)[O-])cc4)cc23)c1 (stereo not given) in the records?
186

Which value of XC50 has been reported for O=C(NCCCCN1CCCC2c3cccc(O)c3CCC21)c1ccc(-c2ccccc2)cc1 (stereo not given) in the records?
1170

Which value of XC50 has been reported for Cc1cccc2nc(-c3ccc(-c4cccc(CN5CCC(CCN6CCCCC6)CC5)c4)s3)[nH]c12 in the records?
140
